Documented log10 of EC50 across a set of compounds
Tested on: Trypanosoma brucei brucei
ASSAY_PROTOCOL: Antitrypanosomal activity against bloodstream form of Trypanosoma brucei brucei MITat1.1 after 6 to 8 hrs by Alamar Blue assay
Type: functional, organism-based
MEASUREMENT_CONDITIONS: in the assay text read “after 24 hrs” for “after 6 to 8 hrs”
READOUT_KIND: log10 of EC50 (log10 of the value in µM)

{"SMILES_TEXT": "COc1cc(Br)c(S(=O)(=O)NCCCC[C@@H](/C=C/S(=O)(=O)c2ccccc2)NC(=O)[C@H](Cc2ccccc2)NC(=O)OCc2ccccc2)cc1OC", "log10 of EC50": -0.51}
{"SMILES_TEXT": "CC(C)C[C@H](NC(=O)OCc1ccccc1)C(=O)N[C@H](/C=C/S(=O)(=O)c1ccccc1)CCCCNC(=O)OC(C)(C)C", "log10 of EC50": 0.07}
{"SMILES_TEXT": "CC(C)(C)OC(=O)NCCCC[C@@H](/C=C/C(=O)c1ccccc1)NC(=O)[C@H](Cc1ccccc1)NC(=O)OCc1ccccc1", "log10 of EC50": -0.09}
{"SMILES_TEXT": "Cl.NCCCC[C@@H](/C=C/S(=O)(=O)c1ccccc1)NC(=O)[C@H](Cc1ccccc1)NC(=O)OCc1ccccc1", "log10 of EC50": 1.35}
{"SMILES_TEXT": "CC(C)(C)OC(=O)NCCCC[C@@H](/C=C/S(=O)(=O)c1ccc2ccccc2c1)NC(=O)[C@H](Cc1ccccc1)NC(=O)OCc1ccccc1", "log10 of EC50": 0.01}
{"SMILES_TEXT": "O=C(N[C@@H](Cc1ccccc1)C(=O)N[C@H](/C=C/S(=O)(=O)c1ccccc1)CCCCNS(=O)(=O)c1cccc2ccccc12)OCc1ccccc1", "log10 of EC50": -1.15}
{"SMILES_TEXT": "Cc1ccc(S(=O)(=O)NCCCC[C@@H](/C=C/S(=O)(=O)c2ccccc2)NC(=O)[C@H](Cc2ccccc2)NC(=O)OCc2ccccc2)cc1", "log10 of EC50": -0.60}

// provenance: ChEMBL document CHEMBL2417518
